Origin of measurements: patent US6911443B2

Attribute: IC50
Target: human Syk (GST-Syk) (Homo sapiens, UniProt P43405)
Construct: A cDNA fragment encoding human Syk openreading frame was cloned; made in house; host or cells: Sf21 insect cells (baculovirus, transfer vector pAcG2T)
Experiment: Syk tyrosine kinase inhibitory assay
Assay type: biochemical
Settings: Table 16; read-out: Activity grade

Some compounds with known IC50 results, for comparison:
Compound	Target Desc	IC50
CCSc1nc(-c2ccc(NCCCN3CCCC3=O)c(OC)c2)cc2nccn12 [Example 17-3]	human Syk (GST-Syk) (Homo sapiens, UniProt P43405)	< 500 nM
CCSc1nc(-c2ccc(NCCN(C)C)c(OC)c2)cc2nccn12 [Example 17-7]	human Syk (GST-Syk) (Homo sapiens, UniProt P43405)	500 to 2000 nM
CCSc1nc(-c2ccc(OC)c(N(C)CCCN(C)C)c2)cc2nccn12 [Example 17-5]	human Syk (GST-Syk) (Homo sapiens, UniProt P43405)	500 to 2000 nM
COc1ccc(Nc2nc(-c3ccc(N4CCCC4)c(OC)c3)cc3nccn23)cc1 [Example 17-16]	human Syk (GST-Syk) (Homo sapiens, UniProt P43405)	< 500 nM
CCSc1nc(-c2ccc(OC)c(NC)c2)cc2nccn12 [Example 17-2]	human Syk (GST-Syk) (Homo sapiens, UniProt P43405)	500 to 2000 nM

Query :: Give a short answer stating reported IC50 for CCSc1nc(-c2ccc(OC)c(NCCCCN(C)C)c2)cc2nccn12 [Example 17-1] .
Result :: 500 to 2000 nM

----------
Molecular target: human Syk (GST-Syk) (Homo sapiens, UniProt P43405)
Construct: A cDNA fragment encoding human Syk openreading frame was cloned; made in house; host or cells: Sf21 insect cells (baculovirus, transfer vector pAcG2T)
Assay: Syk tyrosine kinase inhibitory assay
Format: biochemical
Conditions: in vitro; compounds as yielded by solid phase synthesis, purity about 40 to 90%; read-out: Activity grade (IC50 class)
Reported Metric: IC50

Compound	IC50
COc1ccc(-c2cc3nccn3c(Nc3ccc(C(=N)N)cc3)n2)cc1OC	< 0.5 µM
COc1ccc(-c2cc3ncnn3c(Nc3ccccc3C(N)=O)n2)cc1OC	< 0.5 µM
COc1ccc(-c2cc3nccn3c(Nc3ccccc3)n2)cc1OC	< 0.5 µM
CCOC(=O)CSc1nc(-c2ccc(OC)c(OC)c2)cc2nccn12	0.5 to 2 µM
COc1ccc(-c2cc3nccn3c(Nc3ccc(CCC(=O)O)cc3C(N)=O)n2)cc1OC	< 0.5 µM

Query :: Give a short answer stating reported IC50 for `COc1ccc(-c2cc3nccn3c(Sc3ccc4c(c3)CNCC4)n2)cc1OC` .
Result :: < 0.5 µM

Query :: Give a short answer stating reported IC50 for `CCSc1nc(-c2ccc(OC)c(OC(C)C)c2)cc2nccn12` .
Result :: < 0.5 µM

Query :: Give a short answer stating reported IC50 for `COc1ccc(-c2cc3nccn3c(Nc3ccc(OCCN4CCOCC4)cc3)n2)cc1OC` .
Result :: < 0.5 µM

Query :: Give a short answer stating reported IC50 for `CCSc1nc(-c2ccc(C)c(S(=O)(=O)NCCO)c2)cc2nccn12` .
Result :: < 0.5 µM

Query :: Give a short answer stating reported IC50 for `CCOc1ccc(-c2cc3nccn3c(SCC)n2)cc1OC` .
Result :: < 0.5 µM
